targetOfAssay: human mGlu5a receptor (Homo sapiens, UniProt P41594)
Construct: expressed in transfected cells
Sequence (P41594 21-1180 isoform P41594-2 limits assumed): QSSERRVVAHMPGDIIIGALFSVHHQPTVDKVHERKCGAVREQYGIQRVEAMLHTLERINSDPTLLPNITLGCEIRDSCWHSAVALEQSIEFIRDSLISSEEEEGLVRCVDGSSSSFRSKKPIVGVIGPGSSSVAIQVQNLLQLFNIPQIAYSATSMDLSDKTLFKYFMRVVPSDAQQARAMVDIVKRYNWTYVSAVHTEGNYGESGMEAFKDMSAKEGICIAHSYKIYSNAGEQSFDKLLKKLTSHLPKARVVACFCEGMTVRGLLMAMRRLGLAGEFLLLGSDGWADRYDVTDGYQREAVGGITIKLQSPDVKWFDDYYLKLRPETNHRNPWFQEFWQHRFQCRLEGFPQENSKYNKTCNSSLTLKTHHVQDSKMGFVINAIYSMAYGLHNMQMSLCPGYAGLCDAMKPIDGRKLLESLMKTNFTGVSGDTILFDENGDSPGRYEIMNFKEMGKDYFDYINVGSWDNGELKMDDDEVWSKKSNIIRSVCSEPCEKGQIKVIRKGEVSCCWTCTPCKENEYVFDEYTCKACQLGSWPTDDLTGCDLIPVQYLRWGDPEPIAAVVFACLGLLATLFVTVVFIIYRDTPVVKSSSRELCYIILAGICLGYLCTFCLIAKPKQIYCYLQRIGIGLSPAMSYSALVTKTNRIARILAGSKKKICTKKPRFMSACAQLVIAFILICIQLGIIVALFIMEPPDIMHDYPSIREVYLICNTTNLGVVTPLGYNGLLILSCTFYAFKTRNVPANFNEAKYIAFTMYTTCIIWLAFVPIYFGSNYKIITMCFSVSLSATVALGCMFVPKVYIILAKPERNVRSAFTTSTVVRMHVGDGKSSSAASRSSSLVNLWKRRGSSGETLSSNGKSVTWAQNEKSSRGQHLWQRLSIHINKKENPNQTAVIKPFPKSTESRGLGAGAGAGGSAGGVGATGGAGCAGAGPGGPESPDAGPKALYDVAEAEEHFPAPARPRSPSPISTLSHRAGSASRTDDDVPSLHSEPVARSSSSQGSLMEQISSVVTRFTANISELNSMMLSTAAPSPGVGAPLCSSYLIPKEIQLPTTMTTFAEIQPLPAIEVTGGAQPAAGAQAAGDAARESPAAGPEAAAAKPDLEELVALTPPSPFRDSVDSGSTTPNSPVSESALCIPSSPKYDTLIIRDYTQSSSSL
experimentalDetails: Intracellular Ca2+ mobilization assay
Type: cell-based
conditionDescription: HEK-293 cells stably transfected with human mGlu5a receptor; pre-incubation 10-30 min with test compound, then L-glutamate at EC20 (typically around 80 μM); Fluo-4AM fluorescence; read-out: EC50 (nM) mGluR5 PAM
measurementName: EC50 (nM)

Use these answered entries as a reference point.
[
  {
    "compound": "O[C@H]1C[C@H](COc2ncc(C#Cc3ccccc3)cn2)C1",
    "targetOfAssay": "human mGlu5a receptor (Homo sapiens, UniProt P41594)",
    "numericValue": 291
  },
  {
    "compound": "C(#Cc1cnc(NC2CCOCC2)nc1)c1ccccc1",
    "targetOfAssay": "human mGlu5a receptor (Homo sapiens, UniProt P41594)",
    "numericValue": 65
  },
  {
    "compound": "O[C@H]1CC[C@H](Oc2ncc(C#Cc3ccccc3)cn2)CC1",
    "targetOfAssay": "human mGlu5a receptor (Homo sapiens, UniProt P41594)",
    "numericValue": 110
  }
]

[a] O=C1OCCCN1Cc1ccc(C#Cc2ccccc2)cn1
[b] CC1(C)CC(Nc2ncc(C#Cc3ccccc3)cn2)CCC1O (racemic) [Example 16]
Req: Which shows the larger EC50 value: a or b ? Identify your selection by its label.
Resp: b
(b: 324 nM, a: 174 nM)

====

targetOfAssay: human mGlu5a receptor (Homo sapiens)
Construct: expressed in transfected cells
experimentalDetails: Intracellular Ca2+ mobilization assay
Assay type: cell-based
conditionDescription: HEK-293 cells stably transfected with human mGlu5a receptor; pre-incubation 10-30 min with test compound, then L-glutamate at EC20 (typically around 80 μM); Fluo-4AM fluorescence; read-out: EC50 (nM) mGluR5 PAM
measurementName: EC50 (nM)

[
  {
    "compound": "COC1CCCC(OC)C1Nc1ncc(C#Cc2ccccc2)cn1 (mixture of isomers)",
    "targetOfAssay": "human mGlu5a receptor (Homo sapiens)",
    "units": "nM",
    "EC50": 345
  }
]

[A] CC1(C)CC(Nc2ncc(C#Cc3ccccc3)cn2)CCO1 (racemic)
[B] O=C1COCCN1Cc1ccc(C#Cc2ccccc2)cn1
Req: Which shows the larger EC50 value: A or B ? Identify your selection by its label.
Resp: A
(A: 172 nM, B: 83 nM)

====

targetOfAssay: human mGlu5a receptor (Homo sapiens)
Construct: expressed in transfected cells
experimentalDetails: Intracellular Ca2+ mobilization assay
Type: cell-based
conditionDescription: HEK293; maximal response in % of the maximal stimulatory effect obtained with saturating concentrations of L-glutamate; HEK-293 human mGlu5a cells, L-glutamate at EC20; read-out: Efficacy (%)
measurementName: Emax (%)

Use these answered entries as a reference point.
[
  {
    "compound": "CC1(C)CC(Nc2ncc(C#Cc3ccccc3)cn2)CCO1 (racemic) [Example 3]",
    "units": "%",
    "Emax": 89
  },
  {
    "compound": "CC(c1ccc(C#Cc2ccccc2)cn1)N1CCOC1=O (racemic) [Example 41]",
    "units": "%",
    "Emax": 59
  },
  {
    "compound": "OC1CCC(Nc2ncc(C#Cc3ccccc3)cn2)C1 (mixture of isomers) [Example 11]",
    "units": "%",
    "Emax": 78
  },
  {
    "compound": "OC1CCCC1Nc1ncc(C#Cc2ccccc2)cn1 (mixture of isomers) [Example 12]",
    "units": "%",
    "Emax": 80
  },
  {
    "compound": "CC1(C)CCC(=O)N1Cc1ccc(C#Cc2ccccc2)cn1 [Example 36]",
    "units": "%",
    "Emax": 82
  },
  {
    "compound": "O=C1CCCCN1Cc1ccc(C#Cc2ccccc2)cn1 [Example 32]",
    "units": "%",
    "Emax": 145
  }
]

[I] CC1(COc2ncc(C#Cc3ccccc3)cc2F)COC1 [Example 29]
[II] O[C@H]1C[C@H](COc2ncc(C#Cc3ccccc3)cn2)C1 [Example 25]
Req: Which shows the larger Emax value: I or II ? Identify your selection by its label.
Resp: II
(II: 133%, I: 71%)

====

targetOfAssay: human mGlu5a receptor (Homo sapiens, UniProt P41594)
Construct: expressed in transfected cells
experimentalDetails: Intracellular Ca2+ mobilization assay
Assay type: cell-based
conditionDescription: HEK293; maximal response in % of the maximal stimulatory effect obtained with saturating concentrations of L-glutamate; HEK-293 human mGlu5a cells, L-glutamate at EC20; read-out: Efficacy (%)
measurementName: Emax (%)

Use these answered entries as a reference point.
[
  {
    "compound": "C(#Cc1cnc(N[C@H]2C[C@@H]3CC[C@H]2O3)nc1)c1ccccc1 (racemic)",
    "Emax [%]": 113
  },
  {
    "compound": "O=C1N(Cc2ccc(C#Cc3ccccc3)cn2)CCN1c1ccccc1",
    "Emax [%]": 84
  },
  {
    "compound": "C(#Cc1cnc(NCC2CCOCC2)nc1)c1ccccc1",
    "Emax [%]": 80
  },
  {
    "compound": "CC1CCN(Cc2ccc(C#Cc3ccccc3)cn2)C1=O (racemic)",
    "Emax [%]": 120
  },
  {
    "compound": "CC1(C)CC(Nc2ncc(C#Cc3ccccc3)cn2)CCC1O (racemic)",
    "Emax [%]": 113
  }
]

[1] O=C1COCCN1Cc1ccc(C#Cc2ccccc2)cn1
[2] C(#Cc1cnc(NC2CCOCC2)nc1)c1ccccc1
[3] OC1CCCCC1Nc1ncc(C#Cc2ccccc2)cn1 (mixture of isomers)
[4] CC1(C)CC(=O)N(Cc2ccc(C#Cc3ccccc3)cn2)C1
Req: # ascending order, key=Emax Please list the labels according to the requested order.
Resp: 2, 3, 1, 4

[P] O=C1OCCCN1Cc1ccc(C#Cc2ccccc2)cn1
[Q] C(#Cc1ccc(OC2CCCCC2)nc1)c1ccccc1
Req: Please indicate which has the smaller reported Emax: P , or Q . Identify your selection by its label.
Resp: Q

====

targetOfAssay: human mGlu5a receptor (Homo sapiens, UniProt P41594)
Construct: expressed in transfected cells
experimentalDetails: Intracellular Ca2+ mobilization assay
Type: cell-based
conditionDescription: HEK293; maximal response in % of the maximal stimulatory effect obtained with saturating concentrations of L-glutamate; HEK-293 human mGlu5a cells, L-glutamate at EC20; read-out: Efficacy (%)
measurementName: Emax (%)

[P] C(#Cc1cnc(NC2CCCC2)nc1)c1ccccc1
[Q] C(#Cc1ccc(NC2CCOCC2)nc1)c1ccccc1
[R] OC[C@H]1CC[C@H](Nc2ncc(C#Cc3ccccc3)cn2)CC1
[S] O[C@H]1CC[C@H](Nc2ncc(C#Cc3ccccc3)cn2)CC1
Req: Which order do these items fall in when sorted by Emax from largest to smallest? Please list the labels according to the requested order.
Resp: R, S, Q, P
(R: 147%, S: 100%, Q: 59%, P: 40%)

[I] CN(c1ncc(C#Cc2ccccc2)cn1)C1CCOCC1
[II] C(#Cc1ccc(NC2CCCC2)nc1)c1ccccc1
[III] OC1CCC(Oc2ncc(C#Cc3ccccc3)cn2)CC1 (racemic)
Req: # ascending order, key=Emax Please list the labels according to the requested order.
Resp: II, I, III

[P] O[C@H]1CC[C@H](Nc2ncc(C#Cc3ccccc3)cc2F)CC1
[Q] CC1(CNc2ncc(C#Cc3ccccc3)cn2)COC1
Req: Please indicate which has the smaller reported Emax: P , or Q . Identify your selection by its label.
Resp: Q

====

targetOfAssay: human mGlu5a receptor (Homo sapiens, UniProt P41594)
Construct: expressed in transfected cells
experimentalDetails: Intracellular Ca2+ mobilization assay
Format: cell-based
conditionDescription: HEK-293 cells stably transfected with human mGlu5a receptor; pre-incubation 10-30 min with test compound, then L-glutamate at EC20 (typically around 80 μM); Fluo-4AM fluorescence; read-out: EC50 (nM) mGluR5 PAM
measurementName: EC50 (nM)

Use these answered entries as a reference point.
[
  {
    "compound": "CC1CCN(Cc2ccc(C#Cc3ccccc3)cn2)C1=O (racemic) [Example 39]",
    "units": "nM",
    "EC50": 93
  },
  {
    "compound": "CC1(CNc2ncc(C#Cc3ccccc3)cn2)COC1 [Example 21]",
    "units": "nM",
    "EC50": 78
  },
  {
    "compound": "CC1(C)CC(=O)N(Cc2ccc(C#Cc3ccccc3)cn2)C1 [Example 33]",
    "units": "nM",
    "EC50": 132
  },
  {
    "compound": "CN1CCCN(Cc2ccc(C#Cc3ccccc3)cn2)C1=O [Example 40]",
    "units": "nM",
    "EC50": 140
  },
  {
    "compound": "O=C1N(Cc2ccc(C#Cc3ccccc3)cn2)CCN1c1ccccc1 [Example 37]",
    "units": "nM",
    "EC50": 103
  }
]

[P] OC1CCCC1Nc1ncc(C#Cc2ccccc2)cn1 (mixture of isomers) [Example 12]
[Q] C(#Cc1ccc(OC2CCCCC2)nc1)c1ccccc1 [Example 28, 2-Cyclohexyloxy-5-phenylethynyl-pyridine]
Req: Please indicate which has the smaller reported EC50: P , or Q . Identify your selection by its label.
Resp: Q

[I] C(#Cc1cnc(NC2CCCCC2)nc1)c1ccccc1 [Example 15]
[II] OC1CCC(Oc2ncc(C#Cc3ccccc3)cc2F)CC1 (racemic) [Example 27]
[III] CC1(C)CCC(=O)N1Cc1ccc(C#Cc2ccccc2)cn1 [Example 36]
[IV] OC1CCC(Nc2ncc(C#Cc3ccccc3)cn2)C1 (mixture of isomers) [Example 11]
Req: Order the records so the highest EC50 appears first and the lowest last. Please list the labels according to the requested order.
Resp: IV, II, III, I

[1] O=C1CCCCN1Cc1ccc(C#Cc2ccccc2)cn1 [Example 32]
[2] OC1CCC(Oc2ncc(C#Cc3ccccc3)cn2)CC1 (racemic) [Example 22]
[3] CC(c1ccc(C#Cc2ccccc2)cn1)N1CCOC1=O (racemic) [Example 41]
Req: # ascending order, key=EC50 Please list the labels according to the requested order.
Resp: 3, 2, 1

The reported measurements were obtained from patent US8716316B2.
